target: human CGT (ceramide galactosyltransferase), CHO/CGT lysate (Homo sapiens); construct: Full-length human CGT cDNA was cloned into the BamH1/Xho1 site of pcDNA3.1 (+); expressed in transfected cells; host or cells: Chinese hamster ovary (CHO) cells; lysate prepared with M-PER; test: CGT enzyme assay, RapidFire/MS/MS readout (Table 1 ranges with one asterisk *); assay type: biochemical; settings: RapidFire method (range with one asterisk *)
pIC50: −log10 of the molar value. Structures can show the parent of a compound that is named as a salt.
assay endpoint: pIC50

In the examples that follow, each entry is paired with its recorded pIC50.
- compound: "CCCCOc1cccc(C(F)(F)[C@H](NS(=O)(=O)c2ccc3cc(OC4CCCC4)ccc3c2)C(=O)N2CCC(N)CC2)c1 [Compound 83-1, trifluoroacetate]"
  pIC50: "> 6.00"
- compound: "NC1CCN(C(=O)[C@H](NS(=O)(=O)c2ccc3cc(OC4CCCC4)ccc3c2)C(F)(F)c2ccc(-c3ccc(Cl)cc3)cc2)CC1 [Compound 91-2, trifluoroacetate]"
  pIC50: "5.00 to 6.00"

Reported pIC50 for human CGT (ceramide galactosyltransferase), CHO/CGT lysate (Homo sapiens), given NC1CCN(C(=O)[C@H](NC(=O)[C@@H](O)c2ccc(OCC3CCCCC3)cc2)C(F)(F)c2ccc(-c3ccc(Cl)cc3)cc2)CC1 [Compound 141-2, trifluoroacetate] ?
4.52 to 5.00

Reported pIC50 for human CGT (ceramide galactosyltransferase), CHO/CGT lysate (Homo sapiens), given NC1CC2CCC(C1)N2C(=O)[C@@H](NS(=O)(=O)c1ccc(OCC2CCCCC2)cc1)C(F)(F)c1ccc(-c2ccc(Cl)cc2)cc1 (stereo partly drawn) ?
> 6.00

Reported pIC50 for human CGT (ceramide galactosyltransferase), CHO/CGT lysate (Homo sapiens), given CC(C)Oc1ccc2cc(S(=O)(=O)N[C@H](C(=O)N3C4CCC3CC(N)C4)C(F)(F)c3ccc(Cl)cc3)ccc2c1 (stereo partly drawn) [Compound 8-1, trifluoroacetate] ?
5.00 to 6.00

Reported pIC50 for human CGT (ceramide galactosyltransferase), CHO/CGT lysate (Homo sapiens), given CCCCOc1ccc(C(F)(F)[C@H](C(=O)N2C3CCC2CC(N)C3)N(C)S(=O)(=O)c2ccc(OCC3CCCCC3)cc2)cc1 (stereo partly drawn) ?
5.00 to 6.00

----------
Biological target: human CGT (ceramide galactosyltransferase), CHO/CGT lysate (Homo sapiens, UniProt Q16880)
Construct: Full-length human CGT cDNA was cloned into the BamH1/Xho1 site of pcDNA3.1 (+); expressed in transfected cells; host or cells: Chinese hamster ovary (CHO) cells; lysate prepared with M-PER
Assay: CGT enzyme assay, RapidFire/MS/MS readout with 0.01% Tween added (Table 1 ranges with two asterisks **)
Format: biochemical
Conditions: CGT enzymatic assay; range with two asterisks (**): RapidFire/MS/MS method with 0.01% Tween added
Protocol: Full-length human CGT cDNA was cloned into the BamH1/Xho1 site of pcDNA3.1 (+) mammalian expression vector (V90-20, Invitrogen, Carlsbad, Calif.) and the plasmid was transfected into Chinese hamster ovary (CHO) cells. […] Protein concentration was determined using a Pierce BCA protein assay kit (ThermoFisher Scientific). […] Quantitative Analysis Using the RapidFire/MS/MS Method: […]
Structures can show the parent of a compound that is named as a salt.
Items are presented alongside their recorded IC50.

In the examples that follow, each entry is paired with its recorded IC50.
- molecule: "NC1CC2CCC(C1)N2C(=O)[C@@H](NS(=O)(=O)c1ccc(OCC2CCCCC2)cc1)C(F)(F)c1ccc(Cl)s1 (some centres unmarked)"
  IC50: "1 to 10 µM"
- molecule: "CCOc1cc(-c2ccc(C(F)(F)[C@H](NS(=O)(=O)c3ccc4cc(OC5CCCC5)ccc4c3)C(=O)N3CCC(N)CC3)cc2)ccc1Cl [Compound 154-1, trifluoroacetate]"
  IC50: "1 to 10 µM"
- molecule: "COc1cc(C(F)(F)[C@@H](NS(=O)(=O)c2ccc3cc(OC4CCCC4)ccc3c2)C(=O)N2C[C@H]3CNC[C@H]3C2)ccc1-c1ccc(Cl)cc1"
  IC50: "10 to 30 µM"

What value of IC50 has been reported for the following molecule? O=C([C@@H](NS(=O)(=O)c1ccc2cc(OC3CCCC3)ccc2c1)C(F)(F)c1ccc(-c2ccc(Cl)cc2)cc1)N1C[C@H]2CNC[C@H]2C1
< 1 µM

What value of IC50 has been reported for the following molecule? N[C@@H]1CCN(C(=O)[C@H](NS(=O)(=O)c2ccc3cc(OC4CCCC4)ccc3c2)C(F)(F)c2ccc(-c3ccc(Cl)cc3)cc2)CC1(F)F [Compound 161-4, trifluoroacetate]
1 to 10 µM

What value of IC50 has been reported for the following molecule? CCOc1cc(-c2ccc(C(F)(F)[C@@H](NS(=O)(=O)c3ccc4cc(OC5CCCC5)ccc4c3)C(=O)N3CCC(N)CC3)cc2)ccc1Cl [Compound 154-2, trifluoroacetate]
1 to 10 µM

What value of IC50 has been reported for the following molecule? NC1CCN(C(=O)[C@H](NS(=O)(=O)c2ccc(OCC3CCCCC3)cc2)C(F)(F)c2ccc(-c3ccc(Cl)cc3)cn2)CC1
30 to 100 µM

What value of IC50 has been reported for the following molecule? N[C@H]1CCN(C(=O)[C@H](NS(=O)(=O)c2ccc3cc(OC4CCCC4)ccc3c2)C(F)(F)c2ccc(-c3ccc(Cl)cc3)cc2)C1 [Compound 148-2, trifluoroacetate]
10 to 30 µM

What value of IC50 has been reported for the following molecule? O=C([C@@H](NS(=O)(=O)c1ccc2cc(OC3CCCC3)ccc2c1)C(F)(F)c1ccc(-c2ccc(Cl)cc2)cc1)N1CCC12CNC2
< 1 µM

What value of IC50 has been reported for the following molecule? COc1cc(C(F)(F)[C@H](NS(=O)(=O)c2ccc3cc(OC4CCCC4)ccc3c2)C(=O)N2C[C@H]3CNC[C@H]3C2)ccc1-c1ccc(Cl)cc1
< 1 µM

----------
Biological target: human CGT (ceramide galactosyltransferase), CHO/CGT lysate (Homo sapiens)
Construct: Full-length human CGT cDNA was cloned into the BamH1/Xho1 site of pcDNA3.1 (+); expressed in transfected cells; host or cells: Chinese hamster ovary (CHO) cells; lysate prepared with M-PER
Sequence (Q16880 21-541): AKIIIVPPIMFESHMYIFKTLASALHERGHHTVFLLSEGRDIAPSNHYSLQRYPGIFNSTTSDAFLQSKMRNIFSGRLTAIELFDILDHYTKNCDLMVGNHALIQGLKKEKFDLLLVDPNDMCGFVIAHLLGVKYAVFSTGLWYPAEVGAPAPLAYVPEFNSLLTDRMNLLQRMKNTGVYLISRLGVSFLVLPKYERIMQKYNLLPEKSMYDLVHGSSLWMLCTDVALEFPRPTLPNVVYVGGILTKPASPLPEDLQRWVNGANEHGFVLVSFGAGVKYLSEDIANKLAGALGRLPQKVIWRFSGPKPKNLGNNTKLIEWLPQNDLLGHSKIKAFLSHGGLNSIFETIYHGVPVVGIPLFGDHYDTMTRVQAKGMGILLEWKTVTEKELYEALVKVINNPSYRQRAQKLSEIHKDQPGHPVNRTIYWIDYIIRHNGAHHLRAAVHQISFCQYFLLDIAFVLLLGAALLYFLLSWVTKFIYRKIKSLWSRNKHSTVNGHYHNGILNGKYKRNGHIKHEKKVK
Experiment: CGT enzyme assay, RapidFire/MS/MS readout with 0.01% Tween added (Table 1 ranges with two asterisks **)
Format: biochemical
Settings: CGT enzymatic assay; range with two asterisks (**): RapidFire/MS/MS method with 0.01% Tween added
pIC50: −log10 of the molar value. Structures can show the parent of a compound that is named as a salt.
Items are presented alongside their recorded pIC50.

- molecule: "NC1CCN(C(=O)[C@H](NS(=O)(=O)c2ccc(OCC3CCCCC3)cc2)C(F)(F)c2cccc(-c3ccc(Cl)cc3)c2)CC1 [Compound 181-2]"
  pIC50: "5.00 to 6.00"
- molecule: "COc1cc(C(F)(F)[C@@H](NS(=O)(=O)c2ccc(OCC3CCCCC3)cc2)C(=O)N2C[C@H]3CNC[C@H]3C2)ccc1-c1ccc(Cl)cc1 [Compound 190-2]"
  pIC50: "4.00 to 4.52"
- molecule: "NC1CC2CCC(C1)N2C(=O)[C@@H](NS(=O)(=O)c1ccc2cc(OC3CC3)ccc2c1)C(F)(F)c1ccc(Br)cc1 (stereo partly drawn) [Compound 177-1, trifluoroacetate]"
  pIC50: "5.00 to 6.00"
- molecule: "NC1CCN(C(=O)[C@@H](NC(=O)C(=O)c2cc3ccc(OC4CCCC4)cc3s2)C(F)(F)c2ccc(-c3ccc(Cl)cc3)cc2)CC1 [Compound 175-1, trifluoroacetate]"
  pIC50: "4.52 to 5.00"
- molecule: "CN(CCCN)C(=O)[C@@H](NS(=O)(=O)c1ccc2cc(OC3CCCC3)ccc2c1)C(F)(F)c1ccc(-c2ccc(Cl)cc2)cc1 [Compound 157-1]"
  pIC50: "5.00 to 6.00"

Turning now to a further record.
Reported pIC50 for human CGT (ceramide galactosyltransferase), CHO/CGT lysate (Homo sapiens), given N[C@@H]1CC2CCC1N2C(=O)[C@@H](NS(=O)(=O)c1ccc2cc(OC3CCCC3)ccc2c1)C(F)(F)c1ccc(-c2ccc(Cl)cc2)cc1 (stereo partly drawn) [Compound 180-4] ?
5.00 to 6.00
